Some compounds, each annotated with its measured Suppressive Rate (%).
- Test system: mice
- TEST DETAILS: Test for analgesic effect (4): acetic acid writhing test
- Format: in vivo
- CONDITION LABEL: oral single dose; 0.7% acetic acid i.p. 25 minutes after; writhing numbers during 10 minutes
Write down the numeric answer in % and omit the unit.

# COMPOUND, READOUT UNIT, ENDPOINT VALUE
rows = [
    ("Cl.Cn1cncc1C[C@H](NC(=O)C=Cc1ccccc1O)C(=O)OCCc1ccccc1 [Compound 26]", "%", 23.8),
    ("CC(C)=CC(=O)N[C@@H](Cc1cncn1C)C(=O)O [Carboxylic acid type E]", "%", 17.8),
]

Q: Tell me its Suppressive Rate (%) given C=CC(=O)N[C@@H](Cc1cncn1Cc1ccccc1)C(=O)O [Carboxylic acid type D, N^α-acryloyl-N^π-benzyl-L-histidine] as the entry.
A: 37.9

Q: Given the compound C=CC(=O)N[C@@H](Cc1cncn1C)C(=O)O [Carboxylic acid type A, N^α-acryloyl-N^π-methyl-L-histidine] , write its reported Suppressive Rate (%).
A: 33.1

Q: Give reported Suppressive Rate (%) value for CCn1cncc1C[C@H](NC(=O)C=Cc1ccccc1)C(=O)O [Carboxylic acid type C]
A: 27.7

* * *

- TEST DETAILS: Test of kinetics in blood of rats
- Assay type: in vivo
- CONDITION LABEL: rat, in vivo, po, 10 mg/kg
OBSERVED PROPERTY: AUC (ng·h/mL)
Express your answer in ng·h/mL, writing the number without its unit.

# MOLECULE, OBSERVED PROPERTY, ENDPOINT VALUE
data = [
    ("C=CC(=O)N[C@@H](Cc1cncn1C)C(=O)OCc1ccc(C)cc1 [Compound 9]", "AUC", 3750.7),
    ("C=CC(=O)N[C@@H](Cc1cncn1C)C(=O)OCC [Compound 2]", "AUC", 3468.0),
    ("C=CC(=O)N[C@@H](Cc1cncn1C)C(=O)OCCCC [Compound 6]", "AUC", 2774.6),
    ("C=CC(=O)N[C@@H](Cc1cncn1C)C(=O)OCCc1ccc(C(C)(C)C)cc1 [Compound 16]", "AUC", 3601.8),
]

# ---- query molecule ----
Q: Give the reported AUC for this molecule. C=CC(=O)N[C@@H](Cc1cncn1C)C(=O)OCCc1ccc(Cl)cc1 [Compound 15]
A: 3620.6

* * *

- TEST DETAILS: Test of kinetics in blood of rats
- Format: in vivo
- CONDITION LABEL: rat, in vivo, po, 10 mg/kg
OBSERVED PROPERTY: AUC (ng·h/mL)
The reply should be a number in ng·h/mL, with the unit left off.

Some compounds with recorded AUC:
# SMILES STRUCTURE, AUC (ng·h/mL)
data = [
    ("C=CC(=O)N[C@@H](Cc1cncn1C)C(=O)OCc1ccc(Cl)cc1", 3747.0),
    ("C=CC(=O)N[C@@H](Cc1cncn1C)C(=O)OCCc1ccccc1", 3971.6),
    ("C=CC(=O)N[C@@H](Cc1cncn1C)C(=O)OCCC(C)(C)C", 3264.2),
]

Q: Specify AUC for C=CC(=O)N[C@@H](Cc1cncn1C)C(=O)OCCc1ccc(OC)cc1 and stop.
A: 4058.3

Q: Output AUC of C=CC(=O)N[C@@H](Cc1cncn1C)C(=O)OC
A: 2027.6

Q: Provide measured AUC value, entry: C=CC(=O)N[C@@H](Cc1cncn1C)C(=O)OC(c1ccccc1)c1ccccc1
A: 2614.2
